- Test system: c-Abl (mouse)
- assay-details: phosphorylation enrichment, bacterial display (enrichment ratio); higher = better substrate or ligand; peptides without Tyr show the background;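 also: 11-residue human phosphosite peptides and single-mutation variants displayed on the E. coli surface, counted by deep sequencing, each peptide's frequency after selection divided by its frequency in the unselected input library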;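 also: frequency after pTyr selection over input frequency; kinase dosed for 20-30% of maximal phosphorylation in three min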
Outcome label depends on phosphorylation enrichment relative to 0.6: at/above gives TRUE, below gives FALSE.

q: Could you please find out whether VEDQYYCVDCY [FHL1_Y208] has phosphorylation enrichment that meets 0.6 or exceeds it?
a: TRUE

---

- target-or-system: Jak2 (UniProt O60674)
- Sequence (O60674 whole entry, looked up): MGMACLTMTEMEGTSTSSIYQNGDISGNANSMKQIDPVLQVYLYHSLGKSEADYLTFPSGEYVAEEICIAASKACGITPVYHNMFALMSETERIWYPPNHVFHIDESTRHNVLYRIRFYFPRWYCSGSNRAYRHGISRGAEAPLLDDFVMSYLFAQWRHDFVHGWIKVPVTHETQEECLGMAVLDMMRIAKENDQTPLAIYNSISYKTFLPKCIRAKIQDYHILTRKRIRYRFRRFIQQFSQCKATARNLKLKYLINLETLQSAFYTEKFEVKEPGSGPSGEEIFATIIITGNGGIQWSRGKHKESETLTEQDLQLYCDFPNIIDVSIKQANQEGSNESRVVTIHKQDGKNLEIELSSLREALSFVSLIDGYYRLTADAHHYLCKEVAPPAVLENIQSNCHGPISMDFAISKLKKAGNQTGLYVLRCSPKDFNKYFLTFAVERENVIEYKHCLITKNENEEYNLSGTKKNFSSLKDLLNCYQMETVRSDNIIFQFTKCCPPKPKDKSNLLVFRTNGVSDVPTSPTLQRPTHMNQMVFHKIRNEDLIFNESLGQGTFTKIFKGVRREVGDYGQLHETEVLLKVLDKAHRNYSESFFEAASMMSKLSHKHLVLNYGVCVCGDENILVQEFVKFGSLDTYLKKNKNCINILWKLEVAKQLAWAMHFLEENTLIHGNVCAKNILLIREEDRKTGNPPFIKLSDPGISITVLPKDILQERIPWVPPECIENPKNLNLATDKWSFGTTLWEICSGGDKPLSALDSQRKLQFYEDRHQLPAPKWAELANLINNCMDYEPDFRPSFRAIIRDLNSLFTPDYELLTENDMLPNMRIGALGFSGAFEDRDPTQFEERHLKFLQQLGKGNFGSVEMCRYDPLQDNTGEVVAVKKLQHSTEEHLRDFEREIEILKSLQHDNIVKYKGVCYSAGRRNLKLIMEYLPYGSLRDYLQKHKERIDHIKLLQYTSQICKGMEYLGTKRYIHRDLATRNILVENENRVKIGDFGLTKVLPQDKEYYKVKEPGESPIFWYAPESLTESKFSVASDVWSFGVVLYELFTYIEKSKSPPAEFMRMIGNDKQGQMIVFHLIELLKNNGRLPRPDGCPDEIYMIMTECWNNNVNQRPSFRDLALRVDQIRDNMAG
- assay-details: phosphorylation enrichment, bacterial display (enrichment ratio); higher = better substrate or ligand; peptides without Tyr show the background
Think of 1 as a floor: if phosphorylation enrichment stands on it or above, it is yes; beneath it, no.

biopolymer-sequence	assigned-class
ATDLAYYLVRE [ASL_Y375_K380E]	yes
AHLLQYNHRVK [LGALS3_Y221]	no
RVLQLYGCSPS [ASTL_Y279_K277Q]	yes
IRKDLYANNVL [ACTA2_Y296]	no

q: Form field: phosphorylation enrichment at least 1? Entry: LLLLFYVVRYC [MPZ_Y177]
a: no

q: Could you tell me if the measured phosphorylation enrichment of LFMGDYVDRGF [PPP2CA_Y86_YF] reaches 1 or more?
a: no

q: Please tell me: is the sequence GQETSYIEDNC [PAH_Y24] at or over 1 in terms of phosphorylation enrichment?
a: yes

---

- target-or-system: Fes (UniProt P07332)
- Sequence (P07332 whole entry, looked up): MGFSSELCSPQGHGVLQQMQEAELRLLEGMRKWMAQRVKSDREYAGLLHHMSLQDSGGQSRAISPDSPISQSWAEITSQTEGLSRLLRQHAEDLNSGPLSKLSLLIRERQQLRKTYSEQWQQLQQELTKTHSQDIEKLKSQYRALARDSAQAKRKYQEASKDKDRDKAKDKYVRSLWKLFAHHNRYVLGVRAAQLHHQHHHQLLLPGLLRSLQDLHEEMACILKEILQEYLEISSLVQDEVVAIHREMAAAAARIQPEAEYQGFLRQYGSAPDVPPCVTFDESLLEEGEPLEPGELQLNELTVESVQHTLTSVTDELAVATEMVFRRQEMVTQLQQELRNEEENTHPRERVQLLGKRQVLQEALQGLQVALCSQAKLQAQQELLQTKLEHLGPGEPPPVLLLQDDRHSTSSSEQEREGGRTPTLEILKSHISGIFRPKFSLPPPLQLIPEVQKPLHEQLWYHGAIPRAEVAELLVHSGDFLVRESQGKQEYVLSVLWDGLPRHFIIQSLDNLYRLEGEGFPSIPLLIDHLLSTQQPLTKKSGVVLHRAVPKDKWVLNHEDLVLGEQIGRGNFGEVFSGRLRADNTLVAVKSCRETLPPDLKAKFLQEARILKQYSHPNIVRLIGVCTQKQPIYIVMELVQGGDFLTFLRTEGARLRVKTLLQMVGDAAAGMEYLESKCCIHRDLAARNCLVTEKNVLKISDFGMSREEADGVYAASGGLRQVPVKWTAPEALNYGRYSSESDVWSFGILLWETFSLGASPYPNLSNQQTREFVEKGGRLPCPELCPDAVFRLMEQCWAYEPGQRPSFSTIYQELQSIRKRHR
- assay-details: phosphorylation enrichment, bacterial display (enrichment ratio); higher = better substrate or ligand; peptides without Tyr show the background
Where phosphorylation enrichment equals or exceeds 1, the correct label is MET; where it does not, the label is NOT MET.

Answered examples (5):
biopolymer-sequence	target-or-system	assigned-class
RAIELYNDKEK [OTULIN_Y244]	Fes (UniProt P07332)	MET
LDAFIYNAAVL [GRIN2A_Y730_D731N]	Fes (UniProt P07332)	MET
KNKNRCKNILP [PTPN11_Y279_Y279C]	Fes (UniProt P07332)	NOT MET
SVVVPYGPPEV [TP53_Y220_E221G]	Fes (UniProt P07332)	NOT MET
GGFNNYGFGND [HNRNPH3_Y159_YF]	Fes (UniProt P07332)	NOT MET

Okay, now this sequence:
q: Does the reported phosphorylation enrichment for ESDFPYSSSFE [SRPK2_Y427_T426P_YF] fall at or above the 1 mark?
a: MET

---

- System: AncSZ
- assay-details: phosphorylation enrichment, bacterial display (enrichment ratio); higher = better substrate or ligand; peptides without Tyr show the background
reported-endpoint: phosphorylation enrichment
Give the value as a plain number.

Illustrative cases are given below, each with its answer.
biopolymer-sequence	phosphorylation enrichment
EIRTQDEAMAS [GFAP_Y242_Y242D]	0.688
LRIAVYHEILI [CREBBP_Y1450_T1447I]	5.75
AEEPIYIIVPA [BMXtide_2014]	4.75
PNKAVYTKMMT [G6PD_Y401_E398K]	0.65
SHLSAYPALEG [CD5_Y465]	0.611
SILAVYSKDNY [PANK2_Y400]	0.925

Switching to the query record.
q: Query for AncSZ: what phosphorylation enrichment does the record show for NTDETYSIDNE [TUBB2B_Y200_C201S] ?
a: 1.27

---

- System: c-Src
- assay-details: phosphorylation enrichment, bacterial display (enrichment ratio); higher = better substrate or ligand; peptides without Tyr show the background
Please use t whenever phosphorylation enrichment is not below 0.6, and f whenever it is.

biopolymer-sequence	target-or-system	assigned-class
FPSLPYSPVSS [CAMKK2_Y128_C123Y_YF]	c-Src	f
PPEFSYGLQTQ [SRA1_Y35_Q32E]	c-Src	f
MFNPMYALFRT [HUWE1_Y4078]	c-Src	t
NSRYTCKLEVK [USH2A_Y3747_Y3747C]	c-Src	f
QLQQAYQEAFE [YWHAZ_Y149_S145L]	c-Src	t

Next:
q: I'd appreciate it if you could say whether VRTSKYRGGGG [HBA1_Y141_L137R] has phosphorylation enrichment at least equal to 0.6.
a: f

Data origin: the supplement of paper PMC10065799
